FYI, the data here is from paper PMC6478789.

STUDY_TARGET: BRD3(2) (Homo sapiens)
Sequence (Q15059 306-415 limits assumed): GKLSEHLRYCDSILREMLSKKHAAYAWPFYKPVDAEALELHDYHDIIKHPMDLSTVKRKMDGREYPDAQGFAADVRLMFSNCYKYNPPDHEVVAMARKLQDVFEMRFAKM
ASSAY_INFO: BROMOscan ligand-binding assay
STUDY_CONDITIONS: KD (BROMOscan), sheet prints no unit (nM)

[
  {
    "COMPOUND": "O=C(C=CN1CC2CC1CN2c1ccccn1)c1ccccc1O (stereo not shown)",
    "STUDY_TARGET": "BRD3(2) (Homo sapiens)",
    "Kd": "> 30000 nM"
  }
]

---

STUDY_TARGET: SMARCA2 (Homo sapiens, UniProt P51531)
Sequence (P51531 1-1572 isoform P51531-2): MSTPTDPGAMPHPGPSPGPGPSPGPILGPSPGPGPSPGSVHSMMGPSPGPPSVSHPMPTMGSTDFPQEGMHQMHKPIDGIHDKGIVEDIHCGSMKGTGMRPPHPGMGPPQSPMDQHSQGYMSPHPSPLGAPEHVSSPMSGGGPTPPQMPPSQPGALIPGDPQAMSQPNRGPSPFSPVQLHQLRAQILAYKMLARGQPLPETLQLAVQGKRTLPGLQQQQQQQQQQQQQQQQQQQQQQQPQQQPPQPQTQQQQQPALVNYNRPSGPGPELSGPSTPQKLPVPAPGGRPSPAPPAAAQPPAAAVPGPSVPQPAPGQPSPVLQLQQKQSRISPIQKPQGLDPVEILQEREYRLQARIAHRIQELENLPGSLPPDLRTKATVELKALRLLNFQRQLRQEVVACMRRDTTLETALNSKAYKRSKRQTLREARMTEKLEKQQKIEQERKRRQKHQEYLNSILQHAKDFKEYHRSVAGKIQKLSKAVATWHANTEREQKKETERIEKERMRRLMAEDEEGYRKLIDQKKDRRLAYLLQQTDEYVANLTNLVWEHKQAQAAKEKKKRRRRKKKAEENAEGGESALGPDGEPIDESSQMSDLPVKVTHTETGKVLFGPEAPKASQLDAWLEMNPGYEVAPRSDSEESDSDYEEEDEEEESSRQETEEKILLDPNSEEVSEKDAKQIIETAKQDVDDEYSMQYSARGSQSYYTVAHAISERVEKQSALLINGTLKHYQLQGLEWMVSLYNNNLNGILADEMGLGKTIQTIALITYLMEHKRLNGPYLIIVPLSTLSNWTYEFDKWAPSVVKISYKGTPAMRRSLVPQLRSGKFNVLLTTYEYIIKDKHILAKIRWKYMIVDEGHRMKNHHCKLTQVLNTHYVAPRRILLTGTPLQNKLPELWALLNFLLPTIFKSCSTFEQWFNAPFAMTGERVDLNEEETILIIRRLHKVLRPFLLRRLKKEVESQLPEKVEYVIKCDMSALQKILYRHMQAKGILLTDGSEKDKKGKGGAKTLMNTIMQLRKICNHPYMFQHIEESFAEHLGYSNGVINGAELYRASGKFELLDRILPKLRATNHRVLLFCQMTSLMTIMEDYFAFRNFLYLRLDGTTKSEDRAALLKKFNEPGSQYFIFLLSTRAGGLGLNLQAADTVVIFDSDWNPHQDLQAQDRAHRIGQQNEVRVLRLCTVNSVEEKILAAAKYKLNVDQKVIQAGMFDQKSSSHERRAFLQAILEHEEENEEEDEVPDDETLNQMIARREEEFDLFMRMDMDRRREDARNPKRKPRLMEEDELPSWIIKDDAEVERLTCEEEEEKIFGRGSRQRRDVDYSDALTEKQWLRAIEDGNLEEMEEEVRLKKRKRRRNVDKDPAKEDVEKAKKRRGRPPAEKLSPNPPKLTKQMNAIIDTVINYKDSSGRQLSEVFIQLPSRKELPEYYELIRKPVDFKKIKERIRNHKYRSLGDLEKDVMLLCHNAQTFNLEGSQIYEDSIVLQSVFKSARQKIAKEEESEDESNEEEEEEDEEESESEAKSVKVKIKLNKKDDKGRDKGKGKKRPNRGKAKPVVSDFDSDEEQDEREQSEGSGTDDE
ASSAY_INFO: BROMOscan ligand-binding assay
STUDY_CONDITIONS: KD (BROMOscan), sheet prints no unit (nM)

[
  {
    "COMPOUND": "CCC(=O)N1CCOc2c(cc(-c3ccc(OC)c(OC)c3)cc2OCC2CCCN(C)C2)C1 (stereo not drawn) [I-CBP112]",
    "Kd": "> 30000 nM"
  },
  {
    "COMPOUND": "COc1ccc(CCc2nc3cc(-c4c(C)noc4C)ccc3n2C[C@H](C)N2CCOCC2)cc1Cl [SGC-CBP30]",
    "Kd": "> 30000 nM"
  },
  {
    "COMPOUND": "CCCOc1ccn2c(C(C)=O)cc(-c3ccccc3S(C)(=O)=O)c2c1 [GSK2801]",
    "Kd": "> 30000 nM"
  }
]
